- reported_conditions: in n-butanol, 328.15 K
measured_property: solubility (mole fraction)

INSERT INTO assay_data (smiles_data, assay_value) VALUES
  ('Cc1cccc(N(C)C(=S)Oc2ccc3ccccc3c2)c1', 0.0097);

---

- reported_conditions: in methanol, 288.15 K
measured_property: solubility (mole fraction)

INSERT INTO assay_data (smiles_data, measured_property, assay_value) VALUES
  ('Cc1cccc(N(C)C(=S)Oc2ccc3ccccc3c2)c1', 'solubility (mole fraction)', 0.0005);

---

- reported_conditions: in isopropanol, 318.15 K
measured_property: solubility (mole fraction)

INSERT INTO results (smiles_data, measured_property, assay_value) VALUES
  ('Cc1cccc(N(C)C(=S)Oc2ccc3ccccc3c2)c1', 'solubility (mole fraction)', 0.00273);
